- measured-on: Poly [ADP-ribose] polymerase 1 (Homo sapiens, UniProt P09874)
- Sequence (P09874 whole entry): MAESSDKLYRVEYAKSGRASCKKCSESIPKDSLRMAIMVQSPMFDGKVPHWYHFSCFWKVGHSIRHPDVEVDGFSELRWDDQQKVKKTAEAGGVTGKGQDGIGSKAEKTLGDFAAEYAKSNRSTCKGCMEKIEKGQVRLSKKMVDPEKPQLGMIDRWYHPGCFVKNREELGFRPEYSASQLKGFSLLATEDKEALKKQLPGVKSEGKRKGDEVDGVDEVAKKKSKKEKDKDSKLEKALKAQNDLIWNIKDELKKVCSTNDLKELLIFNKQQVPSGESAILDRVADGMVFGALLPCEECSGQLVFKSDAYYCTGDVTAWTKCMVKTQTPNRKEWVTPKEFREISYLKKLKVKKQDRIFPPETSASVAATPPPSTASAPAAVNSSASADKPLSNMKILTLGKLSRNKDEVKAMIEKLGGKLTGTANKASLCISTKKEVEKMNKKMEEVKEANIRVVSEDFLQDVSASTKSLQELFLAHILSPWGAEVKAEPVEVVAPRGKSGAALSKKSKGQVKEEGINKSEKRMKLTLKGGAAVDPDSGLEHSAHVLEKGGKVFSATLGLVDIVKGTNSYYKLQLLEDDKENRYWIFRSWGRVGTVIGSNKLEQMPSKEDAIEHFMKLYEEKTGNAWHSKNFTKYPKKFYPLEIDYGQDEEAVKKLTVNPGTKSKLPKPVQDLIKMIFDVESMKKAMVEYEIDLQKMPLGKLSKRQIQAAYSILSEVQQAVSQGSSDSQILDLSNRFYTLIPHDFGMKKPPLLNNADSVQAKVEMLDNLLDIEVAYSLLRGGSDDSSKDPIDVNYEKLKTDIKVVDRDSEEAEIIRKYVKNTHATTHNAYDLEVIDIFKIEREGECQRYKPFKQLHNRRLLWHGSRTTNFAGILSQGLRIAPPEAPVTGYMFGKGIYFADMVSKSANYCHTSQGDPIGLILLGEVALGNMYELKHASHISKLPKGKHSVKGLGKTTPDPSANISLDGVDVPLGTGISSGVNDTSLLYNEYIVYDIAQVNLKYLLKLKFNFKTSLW
- assay-comment: Inhibition of PARP1 (unknown origin) at 1 uM relative to control
We begin with a simple list: items and their reported inhibition.
Note: unit % is implicit; provide only the numeric part.

Some molecules with known inhibition results, for comparison:
>  <test-smiles>
COc1ccc2nc(-c3cc(F)cc(Cc4n[nH]c(=O)c5ccccc45)c3)[nH]c(=O)c2c1

>  <measured-on>
Poly [ADP-ribose] polymerase 1 (Homo sapiens, UniProt P09874)

>  <inhibition [%]>
72.1

$$$$
>  <test-smiles>
COc1cc(OC)c2c(=O)[nH]c(-c3cc(C)c(OCCOc4ccccc4C(N)=O)c(C)c3)nc2c1

>  <measured-on>
Poly [ADP-ribose] polymerase 1 (Homo sapiens, UniProt P09874)

>  <inhibition [%]>
35.9

$$$$
>  <test-smiles>
O=c1[nH]c(-c2cc(F)cc(Cc3n[nH]c(=O)c4ccccc34)c2)nc2ccc(Cl)cc12

>  <measured-on>
Poly [ADP-ribose] polymerase 1 (Homo sapiens, UniProt P09874)

>  <inhibition [%]>
78

$$$$
>  <test-smiles>
O=c1[nH]c(-c2ccc(Cc3n[nH]c(=O)c4ccccc34)cc2)nc2ccc(Cl)cc12

>  <measured-on>
Poly [ADP-ribose] polymerase 1 (Homo sapiens, UniProt P09874)

>  <inhibition [%]>
52.3

$$$$
>  <test-smiles>
O=c1[nH]c(-c2ccc(Cc3n[nH]c(=O)c4ccccc34)cc2)nc2ccc(F)cc12

>  <measured-on>
Poly [ADP-ribose] polymerase 1 (Homo sapiens, UniProt P09874)

>  <inhibition [%]>
58.2

$$$$
>  <test-smiles>
O=c1[nH]c(-c2cc(F)cc(Cc3n[nH]c(=O)c4ccccc34)c2)nc2ccccc12

>  <measured-on>
Poly [ADP-ribose] polymerase 1 (Homo sapiens, UniProt P09874)

>  <inhibition [%]>
84.5

$$$$
>  <test-smiles>
COc1cc(OC)c2c(=O)[nH]c(-c3cccc(Cc4n[nH]c(=O)c5ccc(Cl)cc45)c3)nc2c1

>  <measured-on>
Poly [ADP-ribose] polymerase 1 (Homo sapiens, UniProt P09874)

>  <inhibition [%]>
43.2

$$$$
>  <test-smiles>
Cc1cc(-c2nc3ccc(F)cc3c(=O)[nH]2)ccc1Cc1n[nH]c(=O)c2ccccc12

>  <measured-on>
Poly [ADP-ribose] polymerase 1 (Homo sapiens, UniProt P09874)

>  <inhibition [%]>
49.5

$$$$

With Poly [ADP-ribose] polymerase 1 (Homo sapiens, UniProt P09874) as the test system, Cc1cccc2nc(-c3ccc(Cc4n[nH]c(=O)c5ccccc45)c(F)c3)[nH]c(=O)c12 showed inhibition of 34.8

Entry COc1cc(OC)c2c(=O)[nH]c(-c3ccc(Cc4n[nH]c(=O)c5ccccc45)cc3)nc2c1 , tested on Poly [ADP-ribose] polymerase 1 (Homo sapiens, UniProt P09874), has a reported inhibition of 59.2

// returns inhibition for O=c1[nH]c(-c2cc(Cc3n[nH]c(=O)c4ccccc34)ccc2F)nc2ccc(F)cc12 with Poly [ADP-ribose] polymerase 1 (Homo sapiens, UniProt P09874); value = 68.5

inhibition of COc1ccc2nc(-c3cc(Cc4n[nH]c(=O)c5ccccc45)ccc3F)[nH]c(=O)c2c1 , assay on Poly [ADP-ribose] polymerase 1 (Homo sapiens, UniProt P09874), is 70.7

Recorded inhibition for O=c1[nH]nc(Cc2cccc(-c3nc4cccc(Cl)c4c(=O)[nH]3)c2)c2ccccc12 on Poly [ADP-ribose] polymerase 1 (Homo sapiens, UniProt P09874) was 75.3

I looked up COc1cc(OC)c2c(=O)[nH]c(-c3cc(F)cc(Cc4n[nH]c(=O)c5ccccc45)c3)nc2c1 and its inhibition for Poly [ADP-ribose] polymerase 1 (Homo sapiens, UniProt P09874) was 82.8
